Data origin, for the record: ChEMBL document CHEMBL4513216

Assay: Toxicity liver stage against HepG2, at 10uM
Assay type: cell-based
Design: test concentration 10 uM, cell line HepG2-A16-CD81EGFP
Details: human, HepG2-A16-CD81EGFP cells; read-out: INHIBITION
value.kind: cytotoxicity at 10 µM (%)
Numbers only, in %.

> print(dat)
                                   compound             value.kind  output.unit  endpoint.value
1  Cc1cc(C(=O)N2C[C@@H]3CN(S(C)(=O)=O)CCO[C@@H]3C2)c(C)o1  cytotoxicity at 10 µM            %           -3.49

Would you mind listing cytotoxicity at 10 µM for each of the following compounds?
1. Cn1ncnc1CNC(=O)N(CCCO)C1CCc2ccccc21 (stereo not drawn)
2. CC(Cn1cccn1)NC(=O)NCc1ccc(S(C)(=O)=O)cc1 (stereo not drawn)
3. CCN(Cc1nc2c(cnn2C)c(=O)[nH]1)Cc1cccs1
4. Cc1nc(NC2CCN(C(=O)C3CC3)CC2)c2cnn(C)c2n1
5. CN(CCN1CCN(c2ccccc2)CC1)C(=O)Nc1ccccn1

[-5.95, 3.64, 1.49, -2.13, 6.37]

Please state cytotoxicity at 10 µM for every compound in the list that follows.
1. COc1cc(-c2cc(-c3ccn(C)c3)nc(N)c2C#N)cc(OC)c1O
2. COc1ccc(F)cc1-c1nc2c([nH]1)c(C1CC1)nn2C

[-7.77, -2.18]

###

Assay: Toxicity liver stage against HepG2, at 10uM
Format: cell-based
Design: test concentration 10 uM, cell line HepG2-A16-CD81EGFP
Details: human, HepG2-A16-CD81EGFP cells; read-out: INHIBITION
Give cytotoxicity at 10 µM for every item shown.

A selection of reference data follows.
> print(dat)
                                   compound  endpoint.value
1  CNc1ncc(-c2csc(NC(=O)C[C@H]3COCCN3)n2)cn1          -11.9%
2  CC(C)(CO)NC(=O)C1CCC(=O)N(Cc2ccc(Cl)cc2)C1 (centres undefined)          -6.14%
3  O=C([C@H]1C[C@H]2OCC[C@H]2N(CC2CC2)C1)N1CCCCO1          -69.2%

# evaluate next
cytotoxicity at 10 µM lookup needed for `O=C(CCc1ccncc1)N1CCc2c(ncnc2N2CCOCC2)C1` , thanks.
-11.5%

###

Would you kindly list cytotoxicity at 10 µM for each of these compounds?
Assay: Toxicity liver stage against HepG2, at 10uM
Type: cell-based
Set-up: test concentration 10 uM, cell line HepG2-A16-CD81EGFP
Conditions: human, HepG2-A16-CD81EGFP cells; read-out: INHIBITION
Numbers only, in %.

> print(dat)
                                   compound             value.kind  endpoint.value
1  Cc1c(C(=O)NCC(C)C)nnn1-c1cccc2c1CCN(C(C)C)C2  cytotoxicity at 10 µM           -12.3

Give measured cytotoxicity at 10 µM for every item shown.
1. CCCc1cc(=O)[nH]c2nnc(SCC(=O)NCCc3ccccc3)n12
2. O=C(Nc1ccc(OC(F)F)cc1)N1CCC(c2nnc[nH]2)CC1
3. COc1cccc2c1OCC(NC(=O)NCCC(N)=O)C2 (stereo not drawn)
4. Cc1cc(NC(=O)N2CCN(c3cccs3)CC2)ccc1C(N)=O

1: 14.2; 2: 7.25; 3: -1.38; 4: -7.79

Provide cytotoxicity at 10 µM for all items below, preserving their order.
1. O=C(Nc1cccs1)NC(CCCO)c1ccccc1 (stereo not drawn)
2. COc1cc(N2CC[C@@H]3[C@@H](CC2)OCCN3CC2CC2)ncn1
3. O=C1CCC2(CCCO2)CCN1Cc1noc(C2CCCC2)n1 (stereo not drawn)
4. CN(Cc1ccco1)C1COC2(CCN(Cc3nccs3)CC2)C1 (stereo not drawn)
5. NC(=O)NCC(=O)N1CCCC(c2nccn2Cc2ccncc2)C1 (stereo not drawn)
6. Cc1ccc(OCCN(C)C(=O)CCCC(N)=O)c(C)c1
7. COCCN1C[C@@H](C)[C@@]2(COCCN(C(=O)Cc3ccccc3)C2)C1
8. CC(NC(=O)N(C)Cc1ccc2c(c1)OCCO2)c1nncn1C (stereo not drawn)

1: 9.18; 2: -107; 3: 4.24; 4: 2.93; 5: 5.07; 6: 1.47; 7: -12.4; 8: -2.25

###

Test: Toxicity liver stage against HepG2, at 10uM
Assay type: cell-based
Parameters: test concentration 10 uM, cell line HepG2-A16-CD81EGFP
Settings: human, HepG2-A16-CD81EGFP cells; read-out: INHIBITION
Field: cytotoxicity at 10 µM. Provide a value for each of the compounds that follow.
One number for each entry, in %.

Examples from the recorded data:
> print(dat)
                                   compound  endpoint.value
1  CN(C)c1cc(C(=O)NCCc2nnc(-c3ccco3)[nH]2)ccn1          -0.653
2     COC(=O)C(C)(C)NC(=O)c1cnc(C(C)(C)C)s1            3.87
3  CCC(CC)C(CNC(=O)Nc1cc(C)nn1C)N1CCOCC1 (stereo not drawn)            1.74
4   COc1cccc(CNCc2c(C(C)C)nn(C)c2N(C)C)c1OC            1.87
5  CCc1nnc(SC2CCCN(c3cnn(C)c3)C2=O)n1C (stereo not drawn)            2.68
6  Cc1c(CN2CCc3[nH]cnc3C2C(=O)O)[nH]c2ccc(F)cc12 (stereo not drawn)           -4.23

Give cytotoxicity at 10 µM for each listed item.
1. Cc1ccc(CNC2(Cc3cc(-c4ccccc4)on3)COC2)o1
2. CSCc1cccc(S(=O)(=O)NCCCn2ccnc2)c1

1: -3.24; 2: 4.51

For each of the compounds below, state cytotoxicity at 10 µM.
1. CN(CC(=O)N1CCCC1)C(=O)c1cccn1CCc1ccccc1
2. COc1ccccc1C1CNCCN1C(C)=O (stereo not drawn)
3. COc1ccc(CN2CCc3nc(C4CCCCN4C)ncc3C2)cc1 (stereo not drawn)
4. FC(F)(F)Oc1ccc(-c2noc([C@@H]3Cc4nc[nH]c4CN3)n2)cc1
5. CCN(C(=O)CN1CCCN(c2nc(C)ns2)CC1)C1CC1
6. Cc1cc(CNC2CCCN(Cc3noc(C4CC4)n3)C2)on1 (stereo not drawn)
7. CC(C)[C@@H]1CN(Cc2cnc3c(S(C)(=O)=O)cnn3c2)C[C@H]1N(C)C

[6.99, 3.6, -1.08, -7.47, -4.08, -17.7, -3.5]

Working through the 3 compounds below one at a time, give cytotoxicity at 10 µM for each.
1. CCS(=O)(=O)N1CCCC2(COCCN(c3cnccn3)C2)C1 (stereo not drawn)
2. CCc1ccccc1CNC(=O)CNCC(F)(F)F
3. O=C(NCCSC1CCCC1)c1cnccn1

1: 10.2; 2: 10.6; 3: -0.95

###

Answer each item with its documented cytotoxicity at 10 µM.
Test: Toxicity liver stage against HepG2, at 10uM
Assay type: cell-based
Set-up: test concentration 10 uM, cell line HepG2-A16-CD81EGFP
Conditions: human, HepG2-A16-CD81EGFP cells; read-out: INHIBITION

Report cytotoxicity at 10 µM for every entry below.
1. O=C(NC1CC1)C1=CC2(CCN(CC3CC3)CC2)c2ccccc21
2. N#Cc1cc2n(n1)CCN(C(=O)CCc1c[nH]c3ccccc13)C2
3. CCC(C)(NCC(=O)NC(=O)NC)c1nccs1 (configuration not stated)
4. CCS(=O)(=O)CCN1CCC(N(C)Cc2noc(C(C)C)n2)C1 (configuration not stated)
5. CC(=O)N1CCCC2(C1)CN(c1nncs1)CCO2 (configuration not stated)

1. 3.11%
2. -9.64%
3. 7.77%
4. -5.55%
5. -102%

Answer for every listed entry: what is its cytotoxicity at 10 µM? The entries follow.
1. NC(=O)C1CCN(C(=O)c2cccn2Cc2cccs2)CC1
2. O=C(N1CCOCC1)N1CCN(c2ccc(Cl)nn2)C(=O)C1
3. COc1c(CNCCNC(=O)c2ccc(C)c(F)c2)c(C)nn1C
4. CC(=O)Nc1nc(C2CCN(C(=O)c3cncs3)CC2)cs1
5. Cc1ccc(N2CCCC(NCc3ccc(C)o3)C2)nn1 (configuration not stated)

["-4.08%", "8.57%", "-3.33%", "-8.91%", "0.0722%"]

Provide the reported cytotoxicity at 10 µM of each entry below, same order.
1. CN(C)c1ccc(C2CCN(c3cnccn3)CC2)nc1
2. Cc1cc(C(=O)N2C[C@@H]3COC[C@]3(c3nnc(C)o3)C2)on1

["-11.2%", "-0.505%"]

###

Assay: Toxicity liver stage against HepG2, at 10uM
Type: cell-based
Parameters: test concentration 10 uM, cell line HepG2-A16-CD81EGFP
Conditions: human, HepG2-A16-CD81EGFP cells; read-out: INHIBITION
value.kind: cytotoxicity at 10 µM

Would you please look over these solved cases?
> print(dat)
                                   compound             value.kind  endpoint.value
1       CN1CCN(Cc2cnc3n2CCN(Cc2cccs2)C3)CC1  cytotoxicity at 10 µM          -3.24%
2  O=C(C(CNCc1cccnc1)c1ccccc1)N1CCOCC1 (stereo not given)  cytotoxicity at 10 µM           2.49%

Give measured cytotoxicity at 10 µM for every item shown.
1. O=C1CCCc2occ(C(=O)N3CCCC4(CCNC4)C3)c21 (stereo not given)
2. O=C(Nc1cnn(CCN2CCOCC2)c1)c1cc(F)ccc1F
3. CCc1ccc(OCCn2cccn2)cc1

["9.15%", "-8.8%", "8.95%"]
